This collection of values is drawn from patent US20240002497A1.

molecular target: T1, rhNav1.7α + β1-β2-β3 (rhesus monkey); assay: binding FACS, CHO FlpIn
T1 construct: also called rhNav1.7-beta1-beta2-beta3; rhNav1.7-β1-β2-β3
List of EC50 values.
Record the result as a number with its unit.

// known answers, use as guide
binder="F010301868 (VHH, also called F0103464B09(L11V, S68T, T79Y, R81Q, S82aN, N82bS, K83R, G88A, V89L)) VHH: EVQLVESGGGVVQPGGSLRLSCATTSRAFIRDVFTGWYRRVPGKERELVARIYNGGNTNYADFAKGRFTISRDNAKKMVYLQMNSLRPEDTALYYCLFSGTINTGREYRSGDYWGQGTLVTVSS" measured_property=EC50 endpoint_result="62 nM"
binder="F010301876 (VHH, also called F0103464B09(L11V, A63V, S68T, T79Y, R81Q, S82aN, N82bS, K83R, G88A, V89L)) VHH: EVQLVESGGGVVQPGGSLRLSCATTSRAFIRDVFTGWYRRVPGKERELVARIYNGGNTNYADFVKGRFTISRDNAKKMVYLQMNSLRPEDTALYYCLFSGTINTGREYRSGDYWGQGTLVTVSS" measured_property=EC50 endpoint_result="110 nM"
binder="F010301939 (VHH, also called F0103464B09(L11V, K83R, G88A, V89L)) VHH: EVQLVESGGGVVQPGGSLRLSCATTSRAFIRDVFTGWYRRVPGKERELVARIYNGGNTNYADFAKGRFSISRDNAKKMVTLRMSNLRPEDTALYYCLFSGTINTGREYRSGDYWGQGTLVTVSS" measured_property=EC50 endpoint_result="22 nM"
binder="F010302339 (VHH) VHH: EVQLVESGGGVVQPGGSLRLSCAASHRAFIRDVFTGWYRRAPGKQRELVARIYEGGNTQYADSAKGRFTISRDNAKKTVYLQMNSLRPEDTALYYCLFSGTISTGREYRSGDYWGQGTLVTVSS" measured_property=EC50 endpoint_result="6.8 nM"

Measured EC50 of F010302336 (VHH) VHH: EVQLVESGGGVVQPGGSLRLSCAASHRQFIRDVFTGWYRRAPGKQRELVARIYNEGNTQYADSAKGRFTISRDNAKKTVYLQMNSLRPEDTALYYCLFSGTISTGREYRSGDYWGQGTLVTVSS : 9.7 nM

Measured EC50 of F010301936 (VHH, also called F0103464B09(L11V, R81Q, K83R, V89L)) VHH: EVQLVESGGGVVQPGGSLRLSCATTSRAFIRDVFTGWYRRVPGKERELVARIYNGGNTNYADFAKGRFSISRDNAKKMVTLQMSNLRPEDTGLYYCLFSGTINTGREYRSGDYWGQGTLVTVSS : 26 nM

Measured EC50 of F010301871 (VHH, also called F0103464B09(L11V, T24A, S68T, T79Y, R81Q, S82aN, N82bS, K83R, AG88, V89L)) VHH: EVQLVESGGGVVQPGGSLRLSCAATSRAFIRDVFTGWYRRVPGKERELVARIYNGGNTNYADFAKGRFTISRDNAKKMVYLQMNSLRPEDTALYYCLFSGTINTGREYRSGDYWGQGTLVTVSS : 37 nM

Measured EC50 of F010301875 (VHH, also called F0103464B09(L11V, F62S, S68T, T79Y, R81Q, S82aN, N82bS, K83R, G88A, V89L)) VHH: EVQLVESGGGVVQPGGSLRLSCATTSRAFIRDVFTGWYRRVPGKERELVARIYNGGNTNYADSAKGRFTISRDNAKKMVYLQMNSLRPEDTALYYCLFSGTINTGREYRSGDYWGQGTLVTVSS : 52 nM
